For each of the compounds below, state its EC50.
# Test system: whole cells (NMuLi, C2C12, and L6 cells, isolated cardiomyocytes, human primary fibroblasts)
# methodSummary: Oxygen consumption rate (OCR) in whole cells, Seahorse XF-24 Flux Analyzer
# Assay type: cell-based
# protocolConditions: increase in OCR; binned EC50 values

Worked cases, EC50 given:
Oc1nc2nonc2nc1Nc1ccc(OCC(F)(F)F)c(F)c1 [1-90] : 5 to 20 µM
O=C(Nc1nc2nonc2nc1OCc1ccccc1)c1ccc(C(F)(F)F)cc1 [1-196] : 5 to 20 µM
Oc1nc2nonc2nc1Nc1ccc(-c2cccc(OC(F)(F)F)c2)cc1 [1-111] : 5 to 20 µM
Oc1nc2nonc2nc1Nc1ccc(-c2ccc(OC(F)(F)F)cc2)cc1 [1-105] : 5 to 20 µM

List the reported EC50 of each compound below.
1. CCc1ccc(Nc2nc3nonc3nc2O)c(F)c1 [1-68]
2. N#Cc1cc(-c2ccc(Nc3nc4nonc4nc3O)cc2)ccc1F [1-129]
3. Oc1nc2nonc2nc1Nc1ccc(OCC(F)(F)F)c(C(F)(F)F)c1 [1-91]
4. Oc1nc2nonc2nc1NC1CCCCC1 [1-212]

1: 5 to 20 µM; 2: 5 to 20 µM; 3: 5 to 20 µM; 4: > 20 µM

# batch: return EC50 for each of the 3 compounds below
1. Oc1nc2nonc2nc1Nc1cccc(F)c1F [1-14]
2. Oc1nc2nonc2nc1Nc1cccc(I)c1 [1-18]
3. CCCCOc1ccc(Nc2nc3nonc3nc2O)cc1 [1-95]

1. 5 to 20 µM
2. 5 to 20 µM
3. ≤ 5 µM

###

Record form. Attribute: EC50. Fill in for each entry.
# System: whole cells (NMuLi, C2C12, and L6 cells, isolated cardiomyocytes, human primary fibroblasts)
# methodSummary: Oxygen consumption rate (OCR) in whole cells, Seahorse XF-24 Flux Analyzer
# Type: cell-based
# protocolConditions: increase in OCR; binned EC50 values

Below are worked cases with known answers.
Oc1nc2nonc2nc1Nc1ccc(OC(F)(F)F)cc1Br : ≤ 5 µM
Oc1nc2nonc2nc1NCc1ccc(Br)cc1 : > 20 µM
Oc1nc2nonc2nc1Nc1cccc(OC(F)(F)F)c1 : ≤ 5 µM
CCCCOc1cccc(Nc2nc3nonc3nc2O)c1 : ≤ 5 µM
Oc1nc2nonc2nc1Nc1ccc(OCCCC(F)(F)F)c(F)c1 : ≤ 5 µM
CCCCC#Cc1ccc(Nc2nc3nonc3nc2O)c(F)c1 : ≤ 5 µM
Oc1nc2nonc2nc1Nc1cccc2ccccc12 : 5 to 20 µM
Oc1nc2nonc2nc1Nc1ccc(S(F)(F)(F)(F)F)cc1 : ≤ 5 µM

Report EC50 for each item below.
1. Oc1nc2nonc2nc1Nc1ccc(OC(F)(F)F)cc1Cl
2. Oc1nc2nonc2nc1Nc1cccc(-c2ccc3c(c2)OC(F)(F)O3)c1
3. Oc1nc2nonc2nc1Nc1cccc(-c2ccc(C(F)(F)F)cc2)c1

1. ≤ 5 µM
2. ≤ 5 µM
3. ≤ 5 µM

###

# Test system: whole cells (NMuLi, C2C12, and L6 cells, isolated cardiomyocytes, human primary fibroblasts)
# methodSummary: Oxygen consumption rate (OCR) in whole cells, Seahorse XF-24 Flux Analyzer
# Type: cell-based
# protocolConditions: increase in OCR; binned EC50 values
What EC50 was measured for each of the following?

Examples with answers:
O=[N+]([O-])c1cccc(Nc2nc3nonc3nc2O)c1 : > 20 µM
Oc1nc2nonc2nc1Nc1ccc(-c2ccc(F)cc2)cc1F : ≤ 5 µM
CCCCCc1ccc(Nc2nc3nonc3nc2O)c(OC(F)(F)F)c1 : ≤ 5 µM
CCCCC#Cc1ccc(Nc2nc3nonc3nc2O)c(OC(F)(F)F)c1 : 5 to 20 µM

# per-item lookup of EC50; items listed below
1. Oc1nc2nonc2nc1Nc1ccc2c(c1)OC(F)(F)O2
2. Cc1cc(Nc2nc3nonc3nc2O)ccc1OCC(F)(F)F
3. CCCCCCc1ccc(Nc2nc3nonc3nc2O)c(F)c1

["5 to 20 µM", "5 to 20 µM", "≤ 5 µM"]

Please go through the list and note EC50 for each compound.
1. O=C1c2ccccc2-c2ccc(Nc3nc4nonc4nc3O)cc21
2. CCCCCc1ccc(Nc2nc3nonc3nc2O)cc1
3. Oc1nc2nonc2nc1Nc1ccc(OC(F)(F)F)c(Br)c1
4. CC12CC3CC(C)(C1)CC(Nc1nc4nonc4nc1O)(C3)C2
5. Cc1ccc(CNc2nc3nonc3nc2O)cc1
6. Oc1nc2nonc2nc1Nc1ccc(OC(F)(F)F)cc1
7. Oc1nc2nonc2nc1Nc1ccc(C(O)(C(F)(F)F)C(F)(F)F)cc1
8. Oc1nc2nonc2nc1Nc1ccc(OC(F)(F)C(F)F)cc1

1: > 20 µM; 2: > 20 µM; 3: ≤ 5 µM; 4: ≤ 5 µM; 5: > 20 µM; 6: 5 to 20 µM; 7: > 20 µM; 8: 5 to 20 µM

Parameter requested: EC50. Apply to each item below.
1. Oc1nc2nonc2nc1Nc1cccc(-c2ccc(F)c(C(F)F)c2)c1
2. Oc1nc2nonc2nc1Nc1ccc(Cl)cc1
3. CCCCCCc1ccc(Nc2nc3nonc3nc2O)cc1
4. N#Cc1cc(-c2ccc(Nc3nc4nonc4nc3O)cc2)cs1

["≤ 5 µM", "5 to 20 µM", "5 to 20 µM", "≤ 5 µM"]

Need EC50 for each of these compounds.
1. Oc1nc2nonc2nc1Nc1ccc(OC(F)(F)F)c(-c2ccc(C(F)(F)F)nc2)c1
2. Cc1cc(OC(F)(F)F)ccc1Nc1nc2nonc2nc1O
3. Oc1nc2nonc2cc1Nc1ccc(C(F)(F)F)cc1
4. CC(=O)c1ccc(Nc2nc3nonc3nc2O)cc1

1: 5 to 20 µM; 2: ≤ 5 µM; 3: > 20 µM; 4: > 20 µM

I would be grateful if you could provide EC50 for each of the following entries.
1. Oc1nc2nonc2nc1Nc1ccc(OC(F)(F)Cl)cc1
2. Oc1nc2nonc2nc1Nc1ccc(OC(F)F)cc1
3. CCCCCc1ccc(Nc2nc3nonc3nc2O)c(F)c1
4. CCCCCCCCNc1nc2nonc2nc1O
5. Oc1nc2nonc2nc1Nc1ccc(C(F)(F)F)cc1F
6. Oc1nc2nonc2nc1Nc1ccc(-c2ccc(OC(F)F)cc2)cc1
7. Oc1nc2nonc2nc1Nc1ccc(C2CCCCC2)cc1

1: ≤ 5 µM; 2: > 20 µM; 3: ≤ 5 µM; 4: ≤ 5 µM; 5: ≤ 5 µM; 6: ≤ 5 µM; 7: ≤ 5 µM

Look at each compound and report its EC50.
1. CCCC#Cc1ccc(Nc2nc3nonc3nc2O)c(OC(F)(F)F)c1
2. Oc1nc2nonc2nc1NC1C2CC3CC(C2)CC1C3 (stereo not shown)
3. Oc1nc2nonc2cc1Nc1ccc(OC(F)(F)F)c(F)c1
4. COc1nc2nonc2cc1Nc1ccc(-c2ccc(C(F)(F)F)nc2)cc1

["≤ 5 µM", "> 20 µM", "> 20 µM", "> 20 µM"]

Look up EC50 for the entries below, preserving their order.
1. Oc1nc2nonc2nc1Nc1cc(C(F)(F)F)cc(C(F)(F)F)c1
2. Oc1nc2nonc2nc1Nc1cccc(-c2ccc(Cl)cc2)c1
3. Oc1nc2nonc2nc1Nc1ccccc1Cl

["5 to 20 µM", "≤ 5 µM", "5 to 20 µM"]

###

# Test system: whole cells (NMuLi, C2C12, and L6 cells, isolated cardiomyocytes, human primary fibroblasts)
# methodSummary: Oxygen consumption rate (OCR) in whole cells, Seahorse XF-24 Flux Analyzer
# Format: cell-based
# protocolConditions: increase in OCR; binned EC50 values
pEC50: −log10 of the molar value.
Would you kindly list pEC50 for each of these compounds?

Illustrative cases are given below, each with its answer.
Oc1nc2nonc2nc1Nc1ccc(-c2ccc(F)cc2)c(F)c1 : ≥ 5.30
Oc1nc2nonc2nc1Nc1ccc(OC(F)(F)F)c(F)c1 : ≥ 5.30

Hi, could you look up pEC50 for each item in my list?
1. Oc1nc2nonc2nc1Nc1ccc(OC(F)(F)F)cc1F
2. Oc1nc2nonc2cc1Nc1cc(C(F)(F)F)cc(C(F)(F)F)c1
3. Oc1nc2nonc2nc1Nc1cccc(-c2ccc(C(F)(F)F)nc2)c1
4. Oc1nc2nonc2nc1Nc1ccc(OCc2ccccc2)cc1
5. Oc1nc2nonc2cc1Nc1ccc(OC(F)(F)F)cc1F

1: ≥ 5.30; 2: ≥ 5.30; 3: < 4.70; 4: ≥ 5.30; 5: ≥ 5.30

Working through the 5 compounds below one at a time, give pEC50 for each.
1. CCCC#Cc1ccc(Nc2nc3nonc3nc2O)c(F)c1
2. Oc1nc2nonc2nc1Nc1ccc(-c2ccccc2)cc1
3. Oc1nc2nonc2nc1Nc1ccc(-c2ccc3c(c2)OCO3)cc1
4. CC(=O)COc1nc2nonc2nc1Nc1ccc(-c2ccc(F)cc2)cc1
5. Oc1nc2nonc2cc1Nc1cccc(C(F)(F)F)c1F

1. ≥ 5.30
2. ≥ 5.30
3. < 4.70
4. ≥ 5.30
5. < 4.70

Provide the reported pEC50 of each entry below, same order.
1. COc1cccc(-c2ccc(Nc3nc4nonc4nc3O)cc2)c1
2. CC(C)(C)c1ccc(Nc2nc3nonc3nc2O)cc1
3. CC(C)(C)c1cccc(Nc2nc3nonc3nc2O)c1
4. Oc1nc2nonc2nc1Nc1ccc(-c2cccs2)cc1
5. Oc1nc2nonc2nc1Nc1ccc(-c2cccc(C(F)(F)F)c2)cc1
6. Oc1nc2nonc2nc1Nc1cccc(-c2ccc(OC(F)(F)F)cc2)c1
7. Oc1nc2nonc2nc1Nc1cccc(F)c1

1: ≥ 5.30; 2: ≥ 5.30; 3: ≥ 5.30; 4: 4.70 to 5.30; 5: 4.70 to 5.30; 6: ≥ 5.30; 7: < 4.70

Give one value of pEC50 per listed compound.
1. Oc1nc2nonc2nc1Nc1cc(F)cc(F)c1
2. Oc1nc2nonc2nc1Nc1cccc(OCc2ccc(C(F)(F)F)cc2)c1
3. O=[N+]([O-])c1cc(Nc2nc3nonc3nc2O)ccc1OC(F)(F)F
4. Cc1ccc(C(F)(F)F)cc1Nc1nc2nonc2nc1O
5. CC(Nc1nc2nonc2nc1O)C12CC3CC(CC(C3)C1)C2 (stereo not drawn)
6. Oc1nc2nonc2nc1Nc1ccc(F)cc1
7. Oc1nc2nonc2nc1Nc1ccccc1OC(F)(F)F
8. Oc1nc2nonc2nc1Nc1ccccc1F

1: 4.70 to 5.30; 2: ≥ 5.30; 3: < 4.70; 4: 4.70 to 5.30; 5: 4.70 to 5.30; 6: < 4.70; 7: ≥ 5.30; 8: 4.70 to 5.30
